Every entry's value here was drawn from ChEMBL document CHEMBL3991601.

biological target: Phosphorylase b kinase gamma catalytic chain, liver/testis isoform (Homo sapiens); also: in the data inactive means no Kd found up to 30 µM
Sequence (P15735 whole entry, canonical isoform): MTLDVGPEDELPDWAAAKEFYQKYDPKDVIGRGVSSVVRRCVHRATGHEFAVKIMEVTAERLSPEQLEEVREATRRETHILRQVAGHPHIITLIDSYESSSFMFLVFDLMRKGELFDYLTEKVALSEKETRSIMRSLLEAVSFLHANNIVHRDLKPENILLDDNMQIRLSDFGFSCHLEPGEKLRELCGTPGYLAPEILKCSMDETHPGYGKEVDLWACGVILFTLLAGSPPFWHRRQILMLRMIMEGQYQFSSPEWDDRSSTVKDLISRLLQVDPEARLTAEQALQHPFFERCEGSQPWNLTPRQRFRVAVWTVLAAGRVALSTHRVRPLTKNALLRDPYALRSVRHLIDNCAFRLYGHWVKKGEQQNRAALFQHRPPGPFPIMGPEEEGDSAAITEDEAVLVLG
Calls of active or inactive are those of the source.
The reply should be one of these categories: active, inactive

See these solved cases before continuing.
COMPOUND | TARGET_OR_SYSTEM | CAT
COc1ccc(-c2ccc3ncc4c(c3c2)n(-c2ccc(N3CCNCC3)c(C(F)(F)F)c2)c(=O)n4C)cn1 [BGT-226 FREE BASE] | Phosphorylase b kinase gamma catalytic chain, liver/testis isoform (Homo sapiens) | inactive
COc1cc2ncnc(Nc3ccc(F)c(Cl)c3)c2cc1NC(=O)/C=C/CN1CCCCC1 [DACOMITINIB ANHYDROUS] | Phosphorylase b kinase gamma catalytic chain, liver/testis isoform (Homo sapiens) | inactive
CC(C)(O)CC(=O)NCCn1ccc2ncnc(Nc3ccc(Oc4cccc(C(F)(F)F)c4)c(Cl)c3)c21 [TAK-285] | Phosphorylase b kinase gamma catalytic chain, liver/testis isoform (Homo sapiens) | inactive

Exam item: State the result this test recorded for Cc1c(NC(=O)OC[C@@H]2COCCN2)cn2ncnc(Nc3ccc4c(cnn4Cc4cccc(F)c4)c3)c12 [AC-480] .
Marked response: inactive

Exam item: State the result this test recorded for COc1cccc(Nc2ncnn3ccc(CN4CC[C@@H](N)[C@H](O)C4)c23)c1 [BMS-690514] .
Marked response: active

Exam item: State the result this test recorded for C[C@@H]1COC(Nc2ccc3ncnc(Nc4ccc(OCc5nccs5)c(Cl)c4)c3c2)=N1 [VARLITINIB] .
Marked response: inactive

Exam item: State the result this test recorded for C=CCN(/C=C1/C(=O)O[C@H](COC)[C@@]2(C)C1=C(O)C(=O)C1=C2[C@H](OC(C)=O)C[C@]2(C)C(=O)CC[C@@H]12)CC=C [SONOLISIB] .
Marked response: inactive

Exam item: State the result this test recorded for COc1cc2ncnc3c2cc1OCCCCCN(C)Cc1ccc(Br)cc1N3 [JNJ-26483327] .
Marked response: inactive

Exam item: State the result this test recorded for S=C(NCc1ccc2c(c1)OCO2)N1CCN(c2ncnc3c2oc2ccccc23)CC1 [AMUVATINIB] .
Marked response: inactive

Exam item: State the result this test recorded for Cc1cc(C(=O)Nc2cc(Oc3ccc4nc(NC(=O)C5CC5)cn4n3)ccc2C)n(C)n1 [TAK-593] .
Marked response: inactive
